tested on: PC-3; experiment: Antiproliferative activity against human PC3 cells after 72 hrs by MTT assay; assay type: functional, cell-based; details: PC-3, 72 h
// reported pIC50 for each item listed
Lab note — pIC50 values are minus log10 of concentrations in M.

O=c1[nH]cc(F)c(=O)[nH]1; 4.91

Next up:
Answer with reported pIC50 of CCCSc1nc(Cl)c2c(n1)N(Cc1ccccc1)C(C(=O)NCCc1ccccc1)N2 (stereo not given)
4.38

====

test system: GES1; experiment: Antiproliferative activity against human GES-1 cells after 72 hrs by MTT assay; type: cell-based; conditions: GES1, 72 h
// reported IC50 for each item listed

CCCSc1nc(Cl)c2c(n1)N(Cc1ccccc1)C(C(=O)N1CCN(C)CC1)N2 (configuration not stated); 303 µM

Next up:
Answer with reported IC50 of O=c1[nH]cc(F)c(=O)[nH]1
12.5 µM

====

tested on: PC-3; experiment: Antiproliferative activity against human PC3 cells after 72 hrs by MTT assay; type: functional, cell-based; conditions: PC-3, 72 h
Classes by IC50: low-valued: < 30 µM; mid-valued: ≥ 30 µM and < 50 µM; high-valued: ≥ 50 µM

The following compounds have reported results that may help.
CCCSc1nc(Cl)c2c(n1)N(Cc1ccccc1)C(C(=O)OCC)N2 (stereo not drawn); high-valued
CCCSc1nc(Cl)c2c(n1)N(CCNC(=O)OC(C)(C)C)C(C(=O)N1CCN(C)CC1)N2 (stereo not drawn); high-valued

Each compound maps to one class by IC50. Which class for CCCSc1nc(Cl)c2c(n1)N(Cc1ccccc1)C(C(=O)N1CCN(C(=O)OC(C)(C)C)CC1)N2 (stereo not drawn) ?
mid-valued

Each compound maps to one class by IC50. Which class for CCCSc1nc(Cl)c2c(n1)N(Cc1ccccc1)C(C(=O)NCCCN1CCOCC1)N2 (stereo not drawn) ?
mid-valued

Each compound maps to one class by IC50. Which class for CCCSc1nc(Cl)c2c(n1)N(Cc1ccccc1)C(C(=O)NCCc1c[nH]c3ccccc13)N2 (stereo not drawn) ?
high-valued

Each compound maps to one class by IC50. Which class for CCCSc1nc(Cl)c2c(n1)N(Cc1cccs1)C(C(=O)N1CCN(C)CC1)N2 (stereo not drawn) ?
low-valued

Each compound maps to one class by IC50. Which class for CCCSc1nc(Cl)c2c(n1)N(CC1CCCCC1)C(C(=O)N1CCN(C)CC1)N2 (stereo not drawn) ?
low-valued

Each compound maps to one class by IC50. Which class for CCCSc1nc(Cl)c2c(n1)N(Cc1ccccc1)C(C(=O)N1CCSCC1)N2 (stereo not drawn) ?
mid-valued

Each compound maps to one class by IC50. Which class for CCCSc1nc(Cl)c2c(n1)N(Cc1ccccc1)C(C(=O)Nc1ccccc1)N2 (stereo not drawn) ?
high-valued

====

// reported IC50 for each item listed
tested on: PC-3; assay: Antiproliferative activity against human PC3 cells after 72 hrs by MTT assay; type: functional, cell-based; details: PC-3, 72 h
Hi! Could you send only the number? It should be in µM, unit omitted.

CCCSc1nc(Cl)c2c(n1)N(Cc1ccccc1)C(C(=O)N1CCN(Cc3ccccc3)CC1)N2 (centres undefined); 57.3
CCCSc1nc(Cl)c2c(n1)N(Cc1ccccc1)C(C(=O)N1CCN(C)CC1)N2 (centres undefined); 29.8

Find the measured IC50 of CCCSc1nc(Cl)c2c(n1)N(Cc1ccccc1)C(C(=O)NCCCc1ccccc1)N2 (centres undefined) with PC-3 as test system.
12.7

Find the measured IC50 of CCCSc1nc(Cl)c2c(n1)N(Cc1ccco1)C(C(=O)N1CCN(C)CC1)N2 (centres undefined) with PC-3 as test system.
11.3

Find the measured IC50 of CCCSc1nc(Cl)c2c(n1)N(Cc1ccccc1)C(C(=O)N1CCOCC1)N2 (centres undefined) with PC-3 as test system.
53.9

Find the measured IC50 of CCCSc1nc(Cl)c2c(n1)N(Cc1ccccc1)C(C(=O)NCCNC(=O)OC(C)(C)C)N2 (centres undefined) with PC-3 as test system.
29.7

Find the measured IC50 of CCCSc1nc(Cl)c2c(n1)N(Cc1ccccc1)C(C(=O)O)N2 (centres undefined) with PC-3 as test system.
49.2

Find the measured IC50 of CCCSc1nc(Cl)c2c(n1)N(CCOC)C(C(=O)N1CCN(C)CC1)N2 (centres undefined) with PC-3 as test system.
62.7
